assayedTarget: Stb4 (UniProt P50104)
Sequence (P50104 whole entry): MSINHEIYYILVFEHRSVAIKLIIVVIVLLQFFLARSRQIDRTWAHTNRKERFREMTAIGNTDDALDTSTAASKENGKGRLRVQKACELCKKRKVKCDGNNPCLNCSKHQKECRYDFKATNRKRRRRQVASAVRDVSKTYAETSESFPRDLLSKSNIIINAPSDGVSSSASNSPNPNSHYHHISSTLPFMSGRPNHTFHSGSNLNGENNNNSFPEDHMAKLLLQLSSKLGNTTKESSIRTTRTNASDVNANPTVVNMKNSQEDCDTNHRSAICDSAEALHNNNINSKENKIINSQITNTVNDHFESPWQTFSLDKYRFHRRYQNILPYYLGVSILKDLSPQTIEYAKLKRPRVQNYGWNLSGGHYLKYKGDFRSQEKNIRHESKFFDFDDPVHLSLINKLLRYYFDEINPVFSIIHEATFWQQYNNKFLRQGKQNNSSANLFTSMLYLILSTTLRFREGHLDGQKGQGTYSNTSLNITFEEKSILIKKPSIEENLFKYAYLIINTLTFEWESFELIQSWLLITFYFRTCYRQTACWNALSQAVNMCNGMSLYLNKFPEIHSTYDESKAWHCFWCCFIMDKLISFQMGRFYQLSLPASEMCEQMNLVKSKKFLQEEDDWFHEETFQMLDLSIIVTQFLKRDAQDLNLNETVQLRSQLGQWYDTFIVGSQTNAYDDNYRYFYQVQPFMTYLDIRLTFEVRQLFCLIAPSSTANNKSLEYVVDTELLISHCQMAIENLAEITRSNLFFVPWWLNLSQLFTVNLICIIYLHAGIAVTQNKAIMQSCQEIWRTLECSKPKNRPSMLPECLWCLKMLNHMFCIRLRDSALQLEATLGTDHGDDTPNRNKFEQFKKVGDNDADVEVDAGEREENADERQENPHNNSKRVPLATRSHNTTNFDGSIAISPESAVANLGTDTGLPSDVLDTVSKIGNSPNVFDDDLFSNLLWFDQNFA
test: PBM E-score (8-mer binding enrichment) (E-score (-0.5 to 0.5)); higher = stronger / more preferred TF binding
appliedConditions: protein concentration: 200 nM; construct: GST-DNA-binding domain
Over roughly 33,000 sequences, “E-score (-0.5 to 0.5)” has its median near -0.056; the highest 2% begin near 0.38. The sample as a whole holds a higher share of the highest values than the screen did.
parameterMeasured: PBM E-score
Answer as a number with no unit attached.

**Q:** Recall and state the measured PBM E-score for CTTGACGA .
**A:** -0.0253

**Q:** Give the measured PBM E-score for CGAACCGA
**A:** 0.397

**Q:** Query PBM E-score for ACGTCGGC
**A:** 0.307

**Q:** Query PBM E-score for GAGCACTC
**A:** 0.09

**Q:** Give the measured PBM E-score for CGGACCGC
**A:** 0.29

**Q:** Provide one value: measured PBM E-score of ATAACCGG
**A:** 0.281

***
**Q:** Kindly indicate its recorded PBM E-score. Item: ATAACCGC
**A:** 0.0841

**Q:** Quickly give me recorded PBM E-score for GCGTCGAA
**A:** -0.0895

**Q:** // Input: CAGTGTGG . Output its PBM E-score only.
**A:** -0.271

**Q:** Read off the recorded PBM E-score for ATATCTGA
**A:** -0.0996

**Q:** Indicate the recorded PBM E-score value for this sequence: GGACTTCA
**A:** -0.0404

**Q:** Indicate the recorded PBM E-score value for this sequence: GGGACCGA
**A:** 0.265

**Q:** Assign PBM E-score to the following record: GGCGTTCA
**A:** -0.0303

**Q:** Answer with the recorded PBM E-score for the sequence listed here: GGAACCGA
**A:** 0.343

**Q:** Provide PBM E-score value for the following sequence: GGCGCCGA
**A:** 0.317

**Q:** Fill in PBM E-score for record CCGTCGGA
**A:** 0.397

**Q:** # return recorded PBM E-score for input CTAACCGA
**A:** 0.401

* * *

assayedTarget: Stb4 (UniProt P50104)
test: PBM E-score (8-mer binding enrichment) (E-score (-0.5 to 0.5)); higher = stronger / more preferred TF binding
appliedConditions: protein concentration: 200 nM; construct: GST-DNA-binding domain
The full ranking holds about 33,000 sequences; the median of “E-score (-0.5 to 0.5)” is about -0.056, and the highest 2% start at about 0.38. The entries come from a sample that favours the highest values as a whole.
Respond with 1 for PBM E-score values of -0.09 and above, 0 for values below.

**Q:** // inclusive: PBM E-score at least -0.09? input: AAGGATAG
**A:** 1

**Q:** Exam item: decide whether the reported PBM E-score for CTTTCGTC is at least -0.09.
**A:** 1

**Q:** Given the entry CCTTGGAG , answer whether its PBM E-score meets or surpasses -0.09.
**A:** 0

**Q:** Check the entry GAAGTGTA : does PBM E-score equal or exceed -0.09?
**A:** 0

**Q:** Is it the case that ATGATCCC has PBM E-score reaching or exceeding -0.09?
**A:** 1

Turning now to a further record.
**Q:** Is reported PBM E-score greater than or equal to -0.09 here: CTTTCGAA
**A:** 0

* * *

assayedTarget: Stb4 (UniProt P50104)
test: PBM E-score (8-mer binding enrichment) (E-score (-0.5 to 0.5)); higher = stronger / more preferred TF binding
appliedConditions: protein concentration: 200 nM; construct: GST-DNA-binding domain
Whole data set: some 33,000 sequences, median “E-score (-0.5 to 0.5)” near -0.056, cut for the highest 2% near 0.38. The entries come from a sample that favours the highest values as a whole.
parameterMeasured: PBM E-score
Lab note: record the figure alone, no unit after it.

Example entries begin here.
**Q:** Identify the reported PBM E-score for the following entry. CGGGAACA
**A:** 0.374

**Q:** Quote PBM E-score reported for AAGAATAT please.
**A:** 0.0558

**Q:** Indicate the recorded PBM E-score value for this sequence: CTCAGATA
**A:** -0.00864

**Q:** Please list PBM E-score recorded for the sequence AGTCCGAC
**A:** 0.11

**Q:** Provide measured PBM E-score value, entry: CCGGAACA
**A:** 0.431

**Q:** Using the record for CCCGCTTA , state its measured PBM E-score.
**A:** 0.0362

---
**Q:** Item TCCAAAAA : provide PBM E-score
**A:** 0.0234

**Q:** Complete the entry with PBM E-score for CCCGGACG
**A:** 0.163

**Q:** Look up and state reported PBM E-score for AGGGGAAT
**A:** 0.0637

**Q:** For the sequence ATGCGAGG , give its measured PBM E-score value.
**A:** -0.224

**Q:** State its PBM E-score for this sequence: CTGAACAA
**A:** -0.0548

**Q:** // Input: ATCCGAAC . Output its PBM E-score only.
**A:** 0.475

**Q:** Give the value of PBM E-score reported for the following: ATTCGGCC
**A:** 0.271

**Q:** Give the reported value of PBM E-score for this record: GAGTACTC
**A:** -0.00922

* * *

assayedTarget: Stb4 (UniProt P50104)
test: PBM E-score (8-mer binding enrichment) (E-score (-0.5 to 0.5)); higher = stronger / more preferred TF binding
appliedConditions: protein concentration: 200 nM; construct: GST-DNA-binding domain
The full ranking holds about 33,000 sequences; the median of “E-score (-0.5 to 0.5)” is about -0.056, and the highest 2% start at about 0.38. The sample holds the highest values, similar sequences and a random draw of the others, so the mix is not that of the screen.
parameterMeasured: PBM E-score
Please give the numeric answer without any surrounding text.

Examples from the recorded data:
**Q:** Assign PBM E-score to the following record: GATTCCCA
**A:** -0.109

**Q:** Read the entry GCCGACCA and write its reported PBM E-score.
**A:** 0.207

**Q:** # return recorded PBM E-score for entry TTCGGCAA
**A:** 0.454

---
**Q:** Provide measured PBM E-score value, entry: CCCTCGGC
**A:** 0.399

**Q:** Given the sequence CGTTCGTA , write its reported PBM E-score.
**A:** -0.0524

**Q:** Given the sequence ATTGCCGA , write its reported PBM E-score.
**A:** 0.451

**Q:** State, in one line, measured PBM E-score of CTTGCCGA
**A:** 0.396

**Q:** Kindly indicate its recorded PBM E-score. Item: AGGAACTG
**A:** -0.148

**Q:** Determine from records and report PBM E-score for ACGAGGGA
**A:** -0.0722

**Q:** Return the recorded PBM E-score value; entry: AAAGTCGC
**A:** 0.0621

**Q:** For the sequence CCGAGGGC , give its reported PBM E-score.
**A:** 0.431

**Q:** Check the records and state PBM E-score for AAGTCTTC
**A:** -0.108

**Q:** Recall and state the measured PBM E-score for GTTGCCCA .
**A:** -0.0723

**Q:** Recall and state the measured PBM E-score for ATTCCGTG .
**A:** 0.363

**Q:** Quote PBM E-score reported for ACATCCGA please.
**A:** 0.486

* * *

assayedTarget: Stb4 (UniProt P50104)
test: PBM E-score (8-mer binding enrichment) (E-score (-0.5 to 0.5)); higher = stronger / more preferred TF binding
appliedConditions: protein concentration: 200 nM; construct: GST-DNA-binding domain
Whole data set: some 33,000 sequences, median “E-score (-0.5 to 0.5)” near -0.056, cut for the highest 2% near 0.38. This is one part of a sample in which the highest values are shown more often than they occur.
parameterMeasured: PBM E-score
Respond with the number and no other words.

Solved entries:
**Q:** Identify measured PBM E-score corresponding to CCTATATA
**A:** -0.103

**Q:** Specify reported PBM E-score for the sequence shown: CCTCGCTA
**A:** -0.29

**Q:** Specify PBM E-score for AAGATCCA and stop.
**A:** -0.0259

**Q:** Read the entry ACTTCGGA and write its reported PBM E-score.
**A:** 0.458

---
**Q:** Quickly give me recorded PBM E-score for GTCGGTAA
**A:** 0.333

**Q:** In one line, give reported PBM E-score of the entry ATCGGTAC .
**A:** 0.329

**Q:** Determine from records and report PBM E-score for CATCGGAG
**A:** 0.204

**Q:** // fetch PBM E-score given entry GCGAGGTA
**A:** -0.124

**Q:** Return reported PBM E-score. Input sequence: CCATCGCA
**A:** -0.229

**Q:** Quickly give me recorded PBM E-score for GGGGAAGA
**A:** -0.186

**Q:** Fill in PBM E-score for record CTGAGGTC
**A:** -0.243

**Q:** Give me measured PBM E-score, please, for this sequence: CAGGAGCA
**A:** -0.163
